test system: Staphylococcus epidermidis; assay: Antimicrobial activity against Staphylococcus epidermidis isolate KO8 isolated from healthy human skin by […]; type: functional
Recorded MIC values for a group of molecules are listed next.

Smiles string: Cn1nnnc1SCC1=C(C(=O)O)N2C(=O)[C@@H](NC(=O)[C@H](O)c3ccccc3)[C@H]2SC1
MIC: 0.25 µg/mL

Which MIC is reported for this molecule? "CN[C@H](CC(C)C)C(=O)N[C@H]1C(=O)N[C@@H](CC(N)=O)C(=O)N[C@H]2C(=O)N[C@H]3C(=O)N[C@H](C(=O)N[C@H](C(=O)O)c4cc(O)cc(O)c4-c4cc3ccc4O)[C@H](O)c3ccc(c(Cl)c3)Oc3cc2cc(c3O[C@@H]2O[C@H](CO)[C@@H](O)[C@H](O)[C@H]2O[C@H]2C[C@](C)(N)[C@H](O)[C@H](C)O2)Oc2ccc(cc2Cl)[C@H]1O"
1 µg/mL

====

system: Staphylococcus aureus; assay: Antimicrobial activity against Staphylococcus aureus ATCC 29213 by […]; format: functional
Recorded MIC values for a group of compounds are listed next.
Your answer should be a number followed by the unit of measure.

Record excerpt, results attached:
Smiles string: C[C@@H]1O[C@@H]1P(=O)(O)O
Target: Staphylococcus aureus
Result: 4 µg/mL
//
Smiles string: CN[C@H](CC(C)C)C(=O)N[C@H]1C(=O)N[C@@H](CC(N)=O)C(=O)N[C@H]2C(=O)N[C@H]3C(=O)N[C@H](C(=O)N[C@H](C(=O)O)c4cc(O)cc(O)c4-c4cc3ccc4O)[C@H](O)c3ccc(c(Cl)c3)Oc3cc2cc(c3O[C@@H]2O[C@H](CO)[C@@H](O)[C@H](O)[C@H]2O[C@H]2C[C@](C)(N)[C@H](O)[C@H](C)O2)Oc2ccc(cc2Cl)[C@H]1O
Target: Staphylococcus aureus
Result: 0.5 µg/mL
//
Smiles string: CN(C)c1cc(NC(=O)CNC(C)(C)C)c(O)c2c1C[C@H]1C[C@H]3[C@H](N(C)C)C(O)=C(C(N)=O)C(=O)[C@@]3(O)C(O)=C1C2=O
Target: Staphylococcus aureus
Result: 0.06 µg/mL
//
Smiles string: Cn1nnnc1SCC1=C(C(=O)O)N2C(=O)[C@@H](NC(=O)[C@H](O)c3ccccc3)[C@H]2SC1
Target: Staphylococcus aureus
Result: 0.5 µg/mL

Short answer please: MIC, Staphylococcus aureus, entry "CCCCCCCCCC(=O)N[C@@H](Cc1c[nH]c2ccccc12)C(=O)N[C@H](CC(N)=O)C(=O)N[C@@H](CC(=O)O)C(=O)N[C@@H]1C(=O)NCC(=O)N[C@@H](CCCN)C(=O)N[C@@H](CC(=O)O)C(=O)N[C@H](C)C(=O)N[C@@H](CC(=O)O)C(=O)NCC(=O)N[C@H](CO)C(=O)N[C@@H]([C@H](C)CC(=O)O)C(=O)N[C@@H](CC(=O)c2ccccc2N)C(=O)O[C@@H]1C"
0.125 µg/mL

====

Recorded MIC values for a group of compounds are listed next.
test system: Staphylococcus epidermidis; assay: Antimicrobial activity against Staphylococcus epidermidis isolate KO8 isolated from healthy human skin by […]; type: functional
Your answer should be a number followed by the unit of measure.

Record excerpt, results attached:
Smiles string: CN(C)c1cc(NC(=O)CNC(C)(C)C)c(O)c2c1C[C@H]1C[C@H]3[C@H](N(C)C)C(O)=C(C(N)=O)C(=O)[C@@]3(O)C(O)=C1C2=O
Target: Staphylococcus epidermidis
MIC: 0.125 µg/mL
//
Smiles string: C[C@@H]1O[C@@H]1P(=O)(O)O
Target: Staphylococcus epidermidis
MIC: 16 µg/mL

Short answer please: MIC, Staphylococcus epidermidis, entry "CCCCCCCCCC(=O)N[C@@H](Cc1c[nH]c2ccccc12)C(=O)N[C@H](CC(N)=O)C(=O)N[C@@H](CC(=O)O)C(=O)N[C@@H]1C(=O)NCC(=O)N[C@@H](CCCN)C(=O)N[C@@H](CC(=O)O)C(=O)N[C@H](C)C(=O)N[C@@H](CC(=O)O)C(=O)NCC(=O)N[C@H](CO)C(=O)N[C@@H]([C@H](C)CC(=O)O)C(=O)N[C@@H](CC(=O)c2ccccc2N)C(=O)O[C@@H]1C"
0.25 µg/mL
